assay: refractive index (Na D-line) (dimensionless); conditions: 293.15 K; 101.33 kPa; Liquid; Standard Abbe refractometry
reported.metric: refractive index

{"compound": "CS(=O)(=O)[O-].N#CCCn1cc[nH+]c1 [1-(2-cyanoethyl)imidazolium methanesulfonate]", "data.value": 1.50224}
{"compound": "Cn1ccnc1.O=S(=O)(O)O [1-methylimidazolium hydrogen sulfate]", "data.value": 1.48955}
{"compound": "CC(=O)[O-].N#CCCn1cc[nH+]c1 [1-(2-cyanoethyl)imidazolium acetate]", "data.value": 1.48534}
{"compound": "N#CCCn1cc[nH+]c1.O=S(=O)([O-])O [1-(2-cyanoethyl)imidazolium hydrogen sulfate]", "data.value": 1.5022}
{"compound": "Cc1ccc(S(=O)(=O)[O-])cc1.N#CCCn1cc[nH+]c1 [1-(2-cyanoethyl)imidazolium 4-methylbenzenesulfonate]", "data.value": 1.54509}
